Tested on: 186277-243-T-J2-PDC complex spheroid growth;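 note: luminescent signal used as a stand-in for viable cell amount; spheroids exposed to compounds for seven days before the viability read; 100% = DMSO vehicle control wells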
Assay: Anticancer human tumor 186277-243-T-J2-PDC patient-derived colon adenocarcinoma cell line growth inhibition [AhR]
Settings: second compound 0.316 µM; first compound 0.0316 µM; active compounds read low
Text: Multicellular complex tumor spheroid response to aryl hydrocarbon receptor antagonists in combination with a variety of drugs and investigational agents in selected tumor cell lines […] Compounds. […] If the clinical Cmax for an agent had not been determined, the highest concentration tested was 10 microM (Table 1). […]
// viability, T/C lookup, one value per entry
reported_endpoint: viability, T/C (%)

> print(dat)
                                   molecule  reported.endpoint  meas.value
1  COc1cc(Nc2ncc3c(n2)-c2ccc(Cl)cc2C(c2c(F)cccc2OC)=NC3)ccc1C(=O)O + Cc1cncc(-c2nc(NCCc3c[nH]c4ccccc34)c3ncn(C(C)C)c3n2)c1     viability, T/C        91.9
2  CC1COCCN1c1cc(C2(S(C)(=N)=O)CC2)nc(-c2ccnc3[nH]ccc23)n1 (centres undefined) + Cc1ccccc1N=Nc1ccc(NC(=O)c2ccnn2C)c(C)c1     viability, T/C        99.1
3  Nc1ncn(C2CC(O)C(CO)O2)c(=O)n1 (centres undefined) + CC(CO)NC(=O)c1cc(-c2ccc(Cl)cc2)nn(-c2cnn(C)c2)c1=O     viability, T/C        85.8
4  Nc1ccn(C2OC(CO)C(O)C2(F)F)c(=O)n1 (centres undefined) + Cc1ccccc1N=Nc1ccc(NC(=O)c2ccnn2C)c(C)c1     viability, T/C        14.9
